Each entry below carries its recorded Activity.
- Test system: Escherichia coli
- assay.details: Inhibition of P pilus biogenesis in Escherichia coli HB101/pPAP5 assessed as agglutination of erythrocytes at 1.8 mM
- Format: functional

- cpd.smiles: "C[C@@H](C(=O)[O-])n1cc(C2CC2)c(Cc2cccc3ccccc23)cc1=O.[Li+]"
  study.target: "Escherichia coli"
  Activity: 32
- cpd.smiles: "O=c1cc(Cc2cccc3ccccc23)c(C2CC2)c2n1[C@H](c1nnn[nH]1)CS2"
  study.target: "Escherichia coli"
  Activity: 4
- cpd.smiles: "O=C(NS(=O)(=O)c1ccccc1)[C@@H]1CSc2c(-c3ccccc3)c(Cc3cccc4ccccc34)cc(=O)n21"
  study.target: "Escherichia coli"
  Activity: 4
- cpd.smiles: "O=C(NS(=O)(=O)c1ccccc1)[C@@H]1CSc2c(C3CC3)c(Cc3cccc4ccccc34)cc(=O)n21"
  study.target: "Escherichia coli"
  Activity: 4
- cpd.smiles: "O=C([O-])[C@@H]1CSc2c(C3CC3)c(Cc3cccc4ccccc34)cc(=O)n21.[Li+]"
  study.target: "Escherichia coli"
  Activity: 8
- cpd.smiles: "CS(=O)(=O)NC(=O)[C@@H]1CSc2c(C3CC3)c(Cc3cccc4ccccc34)cc(=O)n21"
  study.target: "Escherichia coli"
  Activity: 2
- cpd.smiles: "C[C@@H](C(=O)O)n1cc(-c2ccccc2)c(Cc2cccc3ccccc23)cc1=O"
  study.target: "Escherichia coli"
  Activity: 32
- cpd.smiles: "NC(=O)[C@@H]1CSc2c(-c3ccccc3)c(Cc3cccc4ccccc34)cc(=O)n21"
  study.target: "Escherichia coli"
  Activity: 64

###

Each entry below carries its recorded Activity.
- System: Escherichia coli
- assay.details: Inhibition of P pilus biogenesis in Escherichia coli HB101/pPAP5 assessed as agglutination of erythrocytes at 1.8 mM
- Assay type: functional

- cpd.smiles: "O=C(NO)[C@@H]1CSc2c(C3CC3)c(Cc3cccc4ccccc34)cc(=O)n21"
  Activity: 64
- cpd.smiles: "O=C(NO)[C@@H]1CSc2c(-c3ccccc3)c(Cc3cccc4ccccc34)cc(=O)n21"
  Activity: 128
- cpd.smiles: "O=c1cc(Cc2cccc3ccccc23)c(-c2ccccc2)c2n1[C@H](c1nnn[nH]1)CS2"
  Activity: 2
- cpd.smiles: "CS(=O)(=O)NC(=O)[C@@H]1CSc2c(-c3ccccc3)c(Cc3cccc4ccccc34)cc(=O)n21"
  Activity: 4
- cpd.smiles: "NC(=O)[C@@H]1CSc2c(C3CC3)c(Cc3cccc4ccccc34)cc(=O)n21"
  Activity: 64

###

- study.target: Chaperone protein PapD (Escherichia coli)
- assay.details: Binding affinity to Escherichia coli PapD relative to control
- Set-up: concentration or dose not given beside the values

- cpd.smiles: "NC(=O)[C@@H]1CSc2c(C3CC3)c(Cc3cccc4ccccc34)cc(=O)n21"
  Activity: "40%"
- cpd.smiles: "O=c1cc(Cc2cccc3ccccc23)c(C2CC2)c2n1[C@H](c1nnn[nH]1)CS2"
  Activity: "67%"
- cpd.smiles: "C[C@@H](C(=O)[O-])n1cc(C2CC2)c(Cc2cccc3ccccc23)cc1=O.[Li+]"
  Activity: "33%"
- cpd.smiles: "O=C([O-])[C@@H]1CSc2c(C3CC3)c(Cc3cccc4ccccc34)cc(=O)n21.[Li+]"
  Activity: "71%"
- cpd.smiles: "O=C(NO)[C@@H]1CSc2c(C3CC3)c(Cc3cccc4ccccc34)cc(=O)n21"
  Activity: "52%"
- cpd.smiles: "O=C(NS(=O)(=O)c1ccccc1)[C@@H]1CSc2c(C3CC3)c(Cc3cccc4ccccc34)cc(=O)n21"
  Activity: "100%"
- cpd.smiles: "CS(=O)(=O)NC(=O)[C@@H]1CSc2c(C3CC3)c(Cc3cccc4ccccc34)cc(=O)n21"
  Activity: "62%"

###

- Test system: Escherichia coli
- assay.details: Inhibition of pili-dependent biofilm formation of Escherichia coli HB101/pPAP5
- Format: functional, organism-based

- cpd.smiles: "CS(=O)(=O)NC(=O)[C@@H]1CSc2c(C3CC3)c(Cc3cccc4ccccc34)cc(=O)n21"
  study.target: "Escherichia coli"
  IC50 [µM]: 30
- cpd.smiles: "O=c1cc(Cc2cccc3ccccc23)c(C2CC2)c2n1[C@H](c1nnn[nH]1)CS2"
  study.target: "Escherichia coli"
  IC50 [µM]: 65
